# target-entity: Protein farnesyltransferase (Homo sapiens, UniProt P49354+P49356)
# assay-overview: Inhibition of Ras Farnesyltransferase from pig brain
# Set-up: species or system Sus scrofa
# experimental-parameters: target entry is the homologue from another species; read-out: I50
quantity-measured: pIC50
API: returns pIC50 as number; meaning -log10 of concentration in mol/L.

Enquiry: Query: pIC50; subject: CSCC[C@H](NC(=O)[C@@H](NC(=O)[C@@H](NC(=O)CCP(=O)(O)C/C=C(\C)CC/C=C(\C)CCC=C(C)C)C(C)C)C(C)C)C(=O)O
Return: 8.22

----------
# target-entity: Protein farnesyltransferase (Homo sapiens, UniProt P49354+P49356)
# assay-overview: Inhibition of Ras Farnesyltransferase enzyme from pig brain
# Parameters: species or system Sus scrofa
# experimental-parameters: target entry is the homologue from another species; read-out: I50
quantity-measured: IC50 (nM)
Reply with just the number (in nM).

{"columns": ["given-smiles", "target-entity", "IC50 / nM"],
 "data": [
  ["CSCC[C@H](NC(=O)[C@@H](NC(=O)[C@@H](NC(=O)COP(=O)(O)C/C=C(\\C)CC/C=C(\\C)CCC=C(C)C)C(C)C)C(C)C)C(=O)O", "Protein farnesyltransferase (Homo sapiens, UniProt P49354+P49356)", 6.2]
]}

API: the following record is the query input.
Enquiry: Query: IC50; subject: CC(C)=CCC/C(C)=C/CC/C(C)=C/CP(=O)(O)OCC(=O)N[C@H](C(=O)N[C@@H](CC(C)C)C(=O)N[C@@H](CO)C(=O)O)C(C)C
Return: 60
